src = patent US20230391845A1

Biological target: T1, human glucose-dependent insulinotropic polypeptide receptor (human, UniProt P48546 22-466)
T1 sequence (looked up): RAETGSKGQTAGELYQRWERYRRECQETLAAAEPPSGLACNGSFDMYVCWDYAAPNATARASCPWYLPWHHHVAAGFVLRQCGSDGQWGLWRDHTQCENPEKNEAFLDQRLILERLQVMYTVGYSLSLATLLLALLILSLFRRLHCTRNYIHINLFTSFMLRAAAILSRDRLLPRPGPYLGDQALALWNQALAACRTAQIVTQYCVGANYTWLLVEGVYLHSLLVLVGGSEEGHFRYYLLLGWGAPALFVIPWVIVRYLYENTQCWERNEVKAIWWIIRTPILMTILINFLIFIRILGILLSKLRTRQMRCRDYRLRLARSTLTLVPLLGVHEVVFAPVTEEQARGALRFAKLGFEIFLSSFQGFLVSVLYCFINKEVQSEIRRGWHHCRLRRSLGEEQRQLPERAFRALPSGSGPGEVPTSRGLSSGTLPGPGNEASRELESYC
Test: cell-based or functional assay
Where no end group is shown, it is not given here. [ ]: non-standard residue; d: D form. Aib = CC(C)(N)C(=O)O
MEASUREMENT_LABEL: hGIPR CRE Luc EC50 (pM)
Could you give me the number in pM? Just the number is fine.

Known results for binders:
H[Aib]HGTFTSDYSILLEKQAA[Aib]EFVQWLLEGGPSSGAPPPS-NH2 (not fully specified (residue 16); printed as H-Aib-HGTFTSDYSILLE-K[2-[2-[2-[[2-[2-[2-[[(4S)-4-carboxy-4-(19-carboxynonadecanoylamino)butanoyl]amino]ethoxy]ethoxy]acetyl]amino]ethoxy]ethoxy]acetyl]-QAA-Aib-EFVQWLLEGGPSSGAPPPS-NH2) [Compound No. 45]; 1.9
Y[Aib]QGTFTSDYSIYLEKQAA[Aib]EFVQWLLEGGPSSGAPPPS-NH2 (not fully specified (residue 16); printed as Y-Aib-QGTFTSDYSIYLE-K[2-[2-[2-[[2-[2-[2-[[(4S)-4-carboxy-4-[[4-[(19-carboxynonadecanoylamino)methyl]cyclohexanecarbonyl]amino]butanoyl]amino]ethoxy]ethoxy]acetyl]amino]ethoxy]ethoxy]acetyl]-QAA-Aib-EFVQWLLEGGPSSGAPPPS-NH2) [Compound No. 14]; 4.2
Y[Aib]QGTFTSDYSIYLDKQAA[Aib]KFVQWLLEGGPSSGAPPPS-NH2 (not fully specified (residue 21); printed as Y-Aib-QGTFTSDYSIYLDKQAA-Aib-K[2-[2-[2-[[2-[2-[2-[[(4S)-4-carboxy-4-[[4-[(19-carboxynonadecanoylamino)methyl]cyclohexanecarbonyl]amino]butanoyl]amino]ethoxy]ethoxy]acetyl]amino]ethoxy]ethoxy]acetyl]-FVQWLLEGGPSSGAPPPS-NH2) [Compound No. 8]; 45.5
H[Aib]HGTFTSDYSIYLEKQAAEEFVQWLLEGGPSSGAPPPS-NH2 (not fully specified (residue 16); printed as H-Aib-HGTFTSDYSIYLE-K[(2S)-2-amino-6-[[(2S)-2-amino-6-[[(4S)-4-carboxy-4-(19-carboxynonadecanoylamino)butanoyl]amino]hexanoyl]amino]hexanoyl]-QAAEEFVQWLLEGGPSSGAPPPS-NH2) [Compound No. 27]; 2.5
Y[Aib]QGTFTSDYSYYLEKQAA[Aib]EFVQWLLEGGPSSGAPPPS-NH2 (not fully specified (residue 16); printed as Y-Aib-QGTFTSDYSYYLE-K[(2S)-2-amino-6-[[(2S)-2-amino-6-[[(4S)-4-carboxy-4-(19-carboxynonadecanoylamino)butanoyl]amino]hexanoyl]amino]hexanoyl]-QAA-Aib-EFVQWLLEGGPSSGAPPPS-NH2) [Compound No. 47]; 14.9
H[Aib]HGTFTSDYSIYLEKRAA[Aib]EFVQWLLEGGPSSGAPPPS-NH2 (not fully specified (residue 16); printed as H-Aib-HGTFTSDYSIYLE-K[(2S)-2-amino-6-[[(2S)-2-amino-6-[[(4S)-4-carboxy-4-(19-carboxynonadecanoylamino)butanoyl]amino]hexanoyl]amino]hexanoyl]-RAA-Aib-EFVQWLLEGGPSSGAPPPS-NH2) [Compound No. 37]; 10.8
Y[Aib]QGTFTSDYSILLEKQAA[Aib]EFVQWLLEGGPSSGAPPPS-NH2 (not fully specified (residue 16); printed as Y-Aib-QGTFTSDYSILLE-K[(2S)-2-amino-6-[[(2S)-2-amino-6-[[(4S)-4-carboxy-4-(19-carboxynonadecanoylamino)butanoyl]amino]hexanoyl]amino]hexanoyl]-QAA-Aib-EFVQWLLEGGPSSGAPPPS-NH2) [Compound No. 46]; 3
H[Aib]HGTFTSDYSIYLEKKAA[Aib]EFVQWLLEGGPSSGAPPPS-NH2 (not fully specified (residue 16); printed as H-Aib-HGTFTSDYSIYLE-K[(2S)-2-amino-6-[[(2S)-2-amino-6-[[(4S)-4-carboxy-4-(19-carboxynonadecanoylamino)butanoyl]amino]hexanoyl]amino]hexanoyl]-KAA-Aib-EFVQWLLEGGPSSGAPPPS-NH2) [Compound No. 33]; 7.3

hGIPR CRE Luc EC50 (pM) for Y[Aib]QGTFTSDYSIYLEKQAA[Aib]KFVQWLLEGGPSSGAPPPS-NH2 (not fully specified (residue 21)) [Compound No. 11] is 7.9

hGIPR CRE Luc EC50 (pM) for H[Aib]HGTFTSDYSIYLEKQAA[Aib]EFVQWLLEGGPSSGAPPPS-NH2 (not fully specified (residue 16)) [Compound No. 21] is 3.2
